Values from patent US10194659B2

Efficacy in % found values by entry
- System: Alternaria solani
- assay summary: In vivo preventive test on Alternaria test (tomatoes)
- test settings: 1 ppm a.i., evaluated 3 days after inoculation

>  <compound>
CCC1CC(C)(C)c2cccc(NC(=O)c3cccnc3C(F)F)c21 (stereo not shown)

>  <Efficacy in % found>
45%

$$$$
>  <compound>
CC[C@@H]1CC(C)(C)c2cccc(NC(=O)c3cccnc3C(F)F)c21

>  <Efficacy in % found>
55%

$$$$
>  <compound>
CCCC1CC(C)(C)c2cccc(NC(=O)c3cccnc3C(F)F)c21 (stereo not shown)

>  <Efficacy in % found>
15%

$$$$
>  <compound>
CCC[C@@H]1CC(C)(C)c2cccc(NC(=O)c3cccnc3C(F)F)c21

>  <Efficacy in % found>
45%

$$$$

###

- System: Phakopsora pachyrhizi
- assay summary: In vivo preventive test on Phakopsora test (soybeans)
- test settings: 0.5 ppm a.i., evaluated 7 days after inoculation

>  <molecule>
CCCC1CC(C)(C)c2cccc(NC(=O)c3cccnc3C(F)F)c21 (centres unmarked)

>  <Efficacy in % found, %>
84

$$$$
>  <molecule>
CCC1CC(C)(C)c2cccc(NC(=O)c3cccnc3C(F)F)c21 (centres unmarked)

>  <Efficacy in % found, %>
71

$$$$
>  <molecule>
CCC[C@@H]1CC(C)(C)c2cccc(NC(=O)c3cccnc3C(F)F)c21

>  <Efficacy in % found, %>
92

$$$$
>  <molecule>
Cn1cc(C(=O)Nc2ccccc2-c2cc(F)c(F)c(F)c2)c(C(F)F)n1 [1.008, fluxapyroxad, reference compound]

>  <Efficacy in % found, %>
0

$$$$
>  <molecule>
CC1CC(C)(C)c2cccc(NC(=O)c3cn(C)nc3C(F)F)c21 (centres unmarked) [1.032, reference compound]

>  <Efficacy in % found, %>
0

$$$$
